Biological target: T1, human TMEM106B (human, UniProt Q9NUM4 2-274)
T1 construct: Full-length, on transiently transfected HEK293 cells, or natively expressed on HeLa, U251 and A549 cells; also called huTMEM106B; huTMEM
Assay: FACS HEK+huTMEM, 0.01 ug/ml
parameter: MFI
Lab note: record just the number, no unit beside it.

anti-TMEM106B antibody TM-6 (antibody, V domains shown, mouse IgG from hybridoma) VH: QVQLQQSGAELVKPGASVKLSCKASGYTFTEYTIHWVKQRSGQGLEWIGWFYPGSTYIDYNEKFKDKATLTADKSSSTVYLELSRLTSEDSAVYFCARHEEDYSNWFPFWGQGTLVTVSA VL: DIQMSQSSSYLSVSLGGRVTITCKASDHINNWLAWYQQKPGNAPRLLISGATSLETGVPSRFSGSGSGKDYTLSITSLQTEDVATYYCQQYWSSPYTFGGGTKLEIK has a reported MFI of 294

Entry anti-TMEM106B antibody TM-22 (antibody, V domains shown) VH: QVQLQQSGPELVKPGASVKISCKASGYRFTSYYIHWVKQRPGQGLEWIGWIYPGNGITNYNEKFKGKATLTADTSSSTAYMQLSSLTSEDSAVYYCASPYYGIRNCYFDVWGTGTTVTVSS VL: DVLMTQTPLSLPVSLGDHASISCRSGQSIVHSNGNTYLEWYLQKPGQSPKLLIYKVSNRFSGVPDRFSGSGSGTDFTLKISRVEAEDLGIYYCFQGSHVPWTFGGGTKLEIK — recorded MFI = 500

The binder anti-TMEM106B antibody TM-8 (antibody, V domains shown, mouse IgG from hybridoma) VH: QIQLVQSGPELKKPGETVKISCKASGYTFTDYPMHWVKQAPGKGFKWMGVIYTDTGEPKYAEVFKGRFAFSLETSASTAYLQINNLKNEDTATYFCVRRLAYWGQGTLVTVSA VL: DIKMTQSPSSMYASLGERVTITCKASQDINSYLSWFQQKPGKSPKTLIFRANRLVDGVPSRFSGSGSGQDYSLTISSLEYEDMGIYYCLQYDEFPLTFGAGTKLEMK showed MFI equal to 301

For reference, reported MFI for anti-TMEM106B antibody TM-45 (antibody, V domains shown) VH: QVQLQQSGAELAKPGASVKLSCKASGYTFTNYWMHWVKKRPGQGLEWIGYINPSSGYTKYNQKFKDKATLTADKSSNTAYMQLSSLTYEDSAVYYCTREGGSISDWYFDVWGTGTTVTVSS VL: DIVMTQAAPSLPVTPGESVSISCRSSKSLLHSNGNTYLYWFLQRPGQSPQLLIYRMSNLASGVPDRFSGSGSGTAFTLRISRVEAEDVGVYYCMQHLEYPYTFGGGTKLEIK stands at 2500

Summary for this binder, anti-TMEM106B antibody TM-30 (antibody, V domains shown, mouse IgG from hybridoma) VH: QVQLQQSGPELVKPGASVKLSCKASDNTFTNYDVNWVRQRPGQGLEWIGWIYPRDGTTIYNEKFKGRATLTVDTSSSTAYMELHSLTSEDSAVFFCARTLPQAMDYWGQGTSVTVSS VL: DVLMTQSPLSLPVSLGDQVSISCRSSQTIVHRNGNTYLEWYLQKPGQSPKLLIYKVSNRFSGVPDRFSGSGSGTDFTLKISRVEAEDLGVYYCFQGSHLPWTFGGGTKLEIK : MFI is 3070

MFI measured on anti-TMEM106B antibody TM-9 (antibody, V domains shown) VH: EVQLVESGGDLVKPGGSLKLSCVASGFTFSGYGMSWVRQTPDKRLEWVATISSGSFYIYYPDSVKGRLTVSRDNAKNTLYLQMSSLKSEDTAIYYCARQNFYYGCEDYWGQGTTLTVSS VL: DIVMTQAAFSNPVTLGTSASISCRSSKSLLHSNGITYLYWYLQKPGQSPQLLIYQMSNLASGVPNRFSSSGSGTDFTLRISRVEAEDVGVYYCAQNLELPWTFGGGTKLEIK = 3940

Data point: anti-TMEM106B antibody TM-16 (antibody, V domains shown) VH: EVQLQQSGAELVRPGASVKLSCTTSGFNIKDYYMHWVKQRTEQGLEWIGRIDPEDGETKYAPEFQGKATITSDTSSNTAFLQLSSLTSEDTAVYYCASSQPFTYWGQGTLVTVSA VL: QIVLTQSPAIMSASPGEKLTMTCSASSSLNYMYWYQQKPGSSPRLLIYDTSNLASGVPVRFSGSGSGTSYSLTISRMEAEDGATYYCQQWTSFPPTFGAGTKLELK ; MFI = 351

Looking up anti-TMEM106B antibody TM-2 (antibody, V domains shown) VH: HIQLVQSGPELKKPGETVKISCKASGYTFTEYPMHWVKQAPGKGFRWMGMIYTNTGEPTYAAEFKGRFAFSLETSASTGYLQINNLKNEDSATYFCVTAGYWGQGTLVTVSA VL: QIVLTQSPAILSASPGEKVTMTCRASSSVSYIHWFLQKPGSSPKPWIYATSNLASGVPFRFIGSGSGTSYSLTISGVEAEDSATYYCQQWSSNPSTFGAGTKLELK , I found its MFI recorded as 1440

Entry anti-TMEM106B antibody TM-10 (antibody, V domains shown) VH: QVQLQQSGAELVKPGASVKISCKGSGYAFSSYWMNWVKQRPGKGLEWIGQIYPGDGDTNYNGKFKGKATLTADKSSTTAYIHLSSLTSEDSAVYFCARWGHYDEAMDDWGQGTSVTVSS VL: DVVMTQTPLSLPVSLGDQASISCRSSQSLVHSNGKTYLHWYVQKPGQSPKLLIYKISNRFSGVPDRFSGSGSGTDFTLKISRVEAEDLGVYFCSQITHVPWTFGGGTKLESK — recorded MFI = 3360

Data point: anti-TMEM106B antibody TM-15 (antibody, V domains shown, mouse IgG from hybridoma) VH: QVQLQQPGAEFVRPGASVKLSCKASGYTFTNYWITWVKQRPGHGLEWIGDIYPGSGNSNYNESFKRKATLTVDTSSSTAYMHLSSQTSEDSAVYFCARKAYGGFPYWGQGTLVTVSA VL: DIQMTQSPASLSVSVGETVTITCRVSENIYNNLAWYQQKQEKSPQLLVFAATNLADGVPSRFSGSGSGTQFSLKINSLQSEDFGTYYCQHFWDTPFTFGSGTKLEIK ; MFI = 584
